The origin of these recorded values is PubChem BioAssay (NCI).

Field: TGI. Provide a value for each of the molecules that follow.
# Tested on: TK-10 renal
# assay: NCI tumour cell line growth inhibition, 48 h

**Q:** Recorded TGI for O=c1[nH]cnc2c1ncn2[C@@H]1C[C@@H]1CO , please?
**A:** > 100 µM

**Q:** Recorded TGI for CC(O)CCCOC(c1ccccc1)(c1ccccc1)c1ccccc1 (stereo unspecified) , please?
**A:** 30.6 µM

**Q:** Recorded TGI for O=C(NC(COC(=O)C(Cc1ccccc1)NC(=O)c1ccccc1)Cc1ccccc1)c1ccccc1 (stereo unspecified) , please?
**A:** > 50 µM

**Q:** Recorded TGI for O=C(Cc1nc2c3c(ccc2[nH]c1=O)C(=O)c1ccccc1C3=O)C(=O)Nc1ccccc1[N+](=O)[O-] , please?
**A:** 44.8 µM

**Q:** Recorded TGI for O=C(Oc1cc(=O)c(OC(=O)c2ccccc2)co1)c1ccccc1 , please?
**A:** > 100 µM

**Q:** Recorded TGI for O=C(Cc1ccccc1)NN1C(=O)/C(=C\c2ccccc2)SC1=Nc1ccccc1 , please?
**A:** > 100 µM

**Q:** Recorded TGI for CCCC(=O)C1=C(O)C(Cc2c(O)c(C)c(O)c(C(=O)CCC)c2O)=C(O)C(C)(C)C1=O , please?
**A:** > 50 µM

**Q:** Recorded TGI for c1ccc2c(c1)[nH]c1c2cc[n+]2cc3c(cc12)CCCC3 , please?
**A:** 25.6 µM

**Q:** Recorded TGI for O=C(/C(=C\c1c(-c2ccccc2)[nH]c2ccccc12)S(=O)(=O)c1ccccc1)c1ccccc1 , please?
**A:** > 100 µM

**Q:** Recorded TGI for C[C@]12CC[C@@H]3c4ccc(O)cc4CC[C@H]3[C@@H]1C/C(=C\c1ccncc1)[C@@H]2O , please?
**A:** > 100 µM

**Q:** Recorded TGI for CCOCN1COCN(C)C1=O , please?
**A:** > 100 µM

**Q:** Recorded TGI for CCc1c[n+]([O-])c(C)cc1[N+](=O)[O-] , please?
**A:** > 100 µM

**Q:** Recorded TGI for COc1ccc(C(=O)c2cc(OC)c(OC)c(OC)c2)cc1OC , please?
**A:** > 100 µM

**Q:** Recorded TGI for O=C1c2ccccc2-c2c1c1ccccc1c(=O)n2CCN1CCNCC1 , please?
**A:** 11.3 µM

**Q:** Recorded TGI for Cn1c(=O)nc2n(-c3cc(C(F)(F)F)cc(C(F)(F)F)c3)c3ccccc3nc-2c1=O , please?
**A:** > 100 µM

**Q:** Recorded TGI for Clc1ccc(CSCCc2ccncc2)cc1Cl , please?
**A:** > 100 µM

**Q:** Recorded TGI for COc1ccc(-c2cnnn2-c2nonc2-n2cccc2)cc1 , please?
**A:** > 61 µM

**Q:** Recorded TGI for Cc1ccc(CC[P+](=O)CCc2ccc(C)nc2)cn1 , please?
**A:** > 100 µM

**Q:** Recorded TGI for CC1(C)CN=C(NN=C(/C=C/c2ccc(C(F)(F)F)cc2)/C=C/c2ccc(C(F)(F)F)cc2)NC1 , please?
**A:** 3.37 µM

**Q:** Recorded TGI for CC1CC(O)C(=O)C(O[C@@H]2C[C@@H]3CC[C@@H]4[C@H](CC[C@]5(C)C(C6=CC(=O)OC6)CC[C@]45O)[C@@]3(C=O)C[C@H]2O)O1 (stereo partly specified) , please?
**A:** 0.173 µM

**Q:** Recorded TGI for C=CC(=O)N1CN(C(=O)C=C)CN(C(=O)C=C)C1 , please?
**A:** 5.7 µM

----------
Field: TGI. Provide a value for each of the molecules that follow.
# Tested on: SNB-75 CNS
# assay: NCI tumour cell line growth inhibition, 48 h

**Q:** Recorded TGI for N#CCCN1C/C(=C/c2ccc(Br)cc2)C(=O)/C(=C/c2ccc(Br)cc2)C1 , please?
**A:** 31.4 µM

**Q:** Recorded TGI for N#CCc1nc(-c2ccccc2)n[nH]1 , please?
**A:** > 100 µM

**Q:** Recorded TGI for O=c1[nH]cnc2c1ncn2[C@@H]1C[C@@H]1CO , please?
**A:** > 100 µM

**Q:** Recorded TGI for COc1ccc(CC2c3c(cc(OC)c(OC)c3OC)CCN2C)cc1OC (stereo unspecified) , please?
**A:** > 100 µM

**Q:** Recorded TGI for CCOC(=O)C(Cl)(Cl)/S(=N\S(=O)(=O)c1ccccc1)NC(=O)c1ccccc1 (stereo unspecified) , please?
**A:** > 100 µM

**Q:** Recorded TGI for CCOCN1COCN(C)C1=O , please?
**A:** > 100 µM

**Q:** Recorded TGI for CC(C)[C@H](O)C(=O)N[C@@H](C)C(=O)N[C@@H]1C(=O)N(C)CCc2ccccc21 , please?
**A:** > 100 µM

**Q:** Recorded TGI for O=C1Nc2ccccc2/C1=C1\CCc2cc(O)ccc21 , please?
**A:** > 25 µM

**Q:** Recorded TGI for CCC1=NC(C(F)(F)F)(C(F)(F)F)N=C(N2CCOCC2)O1 , please?
**A:** > 100 µM

**Q:** Recorded TGI for CC(C)(C)[Si](C)(C)OC1[C@@H](CNC(=O)NC(=O)CCl)O[C@@H](n2cnc3c(N)ncnc32)[C@H]1O[Si](C)(C)C(C)(C)C (stereo partly specified) , please?
**A:** 2.47 µM

**Q:** Recorded TGI for CCOC(=O)C1(C(=O)OCC)COS(=O)OC1 , please?
**A:** > 100 µM

----------
# Test system: UO-31 renal
# assay: NCI tumour cell line growth inhibition, 48 h
measuredMetric: TGI

**Q:** Recorded TGI for O=C(Nc1cc(Nc2ncccc2-c2ncnc3nc[nH]c23)ccc1F)c1cc(C(F)(F)F)cc(C(F)(F)F)c1 , please?
**A:** 1.99 µM

**Q:** Recorded TGI for COc1ccc(/C=C2\C[C@H]3[C@@H]4CCC5=C/C(=N/O)CC[C@]5(C)[C@H]4CC[C@]3(C)\C2=N\O)cc1OC , please?
**A:** > 100 µM

**Q:** Recorded TGI for CN(C(=O)c1ccc([N+](=O)[O-])cc1)c1ccccc1 , please?
**A:** > 100 µM

**Q:** Recorded TGI for CC(C(=O)c1ccc(Cl)cc1)/C(=N/NC(=O)NN)C(=O)Nc1cccc(C(F)(F)F)c1 (stereo not given) , please?
**A:** > 100 µM

**Q:** Recorded TGI for O=C1c2ccccc2-c2c1c1ccccc1c(=O)n2CCN1CCNCC1 , please?
**A:** 13 µM

**Q:** Recorded TGI for O=C(Nc1ccccc1F)c1cc2ccc(O)cc2oc1=Nc1ccccc1F , please?
**A:** 3.56 µM

**Q:** Recorded TGI for N#CC(=Nc1ccccc1N(C(=O)c1ccccc1)C(=O)c1ccccc1)c1ccccc1 , please?
**A:** > 100 µM

**Q:** Recorded TGI for NCCCN1CCN(CCCNc2ccc3nnn4c5ccccc5c(=O)c2c34)CC1 , please?
**A:** 90.7 µM

**Q:** Recorded TGI for CCCCNC(=S)N/N=C/c1cccc(C)n1 , please?
**A:** 78.5 µM

**Q:** Recorded TGI for O=C1Sc2ccccc2C(=O)N2CSCC12 (stereo not given) , please?
**A:** > 100 µM

----------
# Test system: HCT-15 colon
# assay: NCI tumour cell line growth inhibition, 48 h
Field: TGI. Provide a value for each of the molecules that follow.

**Q:** Recorded TGI for COc1ccc(-c2nn(-c3cccc(Cl)c3)cc2-c2cc(-c3ccccc3)[nH]c(=O)c2C#N)cc1 , please?
**A:** > 50 µM

**Q:** Recorded TGI for COc1ccc(-c2oc(/C=N/NC(N)=S)c([N+](=O)[O-])c2-c2ccc(OC)c(OC)c2)cc1OC , please?
**A:** > 100 µM

**Q:** Recorded TGI for NC(=O)C(=O)CC(=O)c1ccccc1NC1=CC(=O)C(=O)c2ccccc21 , please?
**A:** > 100 µM

**Q:** Recorded TGI for CCc1ccc2c(c1)C(=O)c1c-2n(CCCN=[N+]=[N-])c(=O)c2cc([N+](=O)[O-])ccc12 , please?
**A:** > 50 µM

**Q:** Recorded TGI for CCN1CCCC(NCc2c3ccccc3c(CNC3CCCN(CC)C3)c3ccccc23)C1 (stereo not given) , please?
**A:** 43.9 µM

----------
Field: TGI. Provide a value for each of the compounds that follow.
# Tested on: DU-145 prostate
# assay: NCI tumour cell line growth inhibition, 48 h

**Q:** Recorded TGI for COc1cc2c(cc1O)CCN[C@]21CS[C@@H]2c3c(OC(C)=O)c(C)c4c(c3[C@H](COC1=O)N1[C@@H]2[C@H]2c3c(cc(C)c(OC)c3O)C[C@@H]([C@@H]1O)N2C)OCO4 , please?
**A:** 1 µM

**Q:** Recorded TGI for CCOC(=O)c1nc2ccc(C(F)(F)F)cc2nc1Oc1ccc(C#N)cc1 , please?
**A:** 38.1 µM

**Q:** Recorded TGI for O=C(O)C(SC1=NNC2(C(=O)N1)c1ccccc1-c1ccccc12)SC1=NNC2(C(=O)N1)c1ccccc1-c1ccccc12 , please?
**A:** > 10 µM

**Q:** Recorded TGI for CSc1c(C#N)c(N)n(-c2ccc(C)cc2)c(=O)c1C#N , please?
**A:** > 100 µM

**Q:** Recorded TGI for Clc1ccc(CSCCc2ccncc2)cc1Cl , please?
**A:** > 100 µM

**Q:** Recorded TGI for Cc1ccc(OCCn2cc(Nc3ccccc3)c(=O)n(CCOc3ccc(C)cc3)c2=O)cc1 , please?
**A:** > 100 µM

**Q:** Recorded TGI for CNc1ncnc2c1cnn2COCC(O)CO (stereo not given) , please?
**A:** > 100 µM

**Q:** Recorded TGI for CC(C)(C)OC(=O)NCCC(N)=S , please?
**A:** > 100 µM

**Q:** Recorded TGI for COc1ccc(S(=O)(=O)N2C(=O)CCC2C(=O)NN)cc1 (stereo not given) , please?
**A:** > 100 µM

**Q:** Recorded TGI for C[C@@H]1S[C@H](c2ccccc2F)N2Cc3ccccc3N=C12 , please?
**A:** > 100 µM
